assay: DRUGMATRIX: Sigma2 radioligand binding (ligand: [3H] Ifenprodil); assay type: cell membranes, Rattus norvegicus, Wistar, Brain, Membrane; conditions: Not Active = under 50% inhibition at 10 µM
parameter_measured: Ki

Solved cases below.
molecule: COc1cc(NC(C)CCCN)c2ncccc2c1 (stereo not drawn)
parameter_measured: Ki
reported_result: Not Active
//
molecule: COc1ccccc1OCCNCC(O)COc1cccc2[nH]c3ccccc3c12 (stereo not drawn)
parameter_measured: Ki
reported_result: Not Active
//
molecule: CC1(C)[C@H](C(=O)O)N2C(=O)C[C@H]2S1(=O)=O
parameter_measured: Ki
reported_result: Not Active
//
molecule: CC(C)NCC(O)COc1ccc(CC(N)=O)cc1 (stereo not drawn)
parameter_measured: Ki
reported_result: Not Active
//
molecule: O=C(c1ccccc1)c1ccc2n1CCC2C(=O)O (stereo not drawn)
parameter_measured: Ki
reported_result: Not Active
//
molecule: C=CCc1ccc2c(c1)OCO2
parameter_measured: Ki
reported_result: Not Active
//
molecule: C1CCN2C[C@@H]3C[C@@H](CN4CCCC[C@@H]34)[C@H]2C1
parameter_measured: Ki
reported_result: Not Active

Next, consider the following molecule.
I am curious: what Ki value has been reported for C[C@@H]1[C@H](O)[C@@H](C)/C=C/C=C/C=C/C=C/C=C/C=C/C=C/[C@H](O[C@@H]2O[C@H](C)[C@@H](O)[C@H](N)[C@@H]2O)C[C@@H]2O[C@](O)(C[C@@H](O)C[C@@H](O)[C@H](O)CC[C@@H](O)C[C@@H](O)CC(=O)O[C@H]1C)C[C@H](O)[C@H]2C(=O)O ?
Not Active

====

target: B2 bradykinin receptor (Homo sapiens); type: cell membranes, Membrane; details: chem-1; further: in other assays of this panel Not Active means under 50% inhibition at 10 µM
Sequence (P30411 whole entry): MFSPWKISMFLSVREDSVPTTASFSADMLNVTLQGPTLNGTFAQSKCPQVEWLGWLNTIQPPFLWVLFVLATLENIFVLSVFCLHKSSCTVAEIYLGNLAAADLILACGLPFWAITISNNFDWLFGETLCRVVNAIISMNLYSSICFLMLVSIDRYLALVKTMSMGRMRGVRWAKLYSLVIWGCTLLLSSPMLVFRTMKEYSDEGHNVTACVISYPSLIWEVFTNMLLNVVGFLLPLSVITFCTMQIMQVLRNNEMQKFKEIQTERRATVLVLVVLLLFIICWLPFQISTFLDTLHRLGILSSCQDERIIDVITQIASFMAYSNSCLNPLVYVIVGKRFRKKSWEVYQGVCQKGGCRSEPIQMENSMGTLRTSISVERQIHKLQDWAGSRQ
parameter_measured: IC50

molecule_smiles: C[C@@H]1[C@H](O)[C@@H](C)/C=C/C=C/C=C/C=C/C=C/C=C/C=C/[C@H](O[C@@H]2O[C@H](C)[C@@H](O)[C@H](N)[C@@H]2O)C[C@@H]2O[C@](O)(C[C@@H](O)C[C@@H](O)[C@H](O)CC[C@@H](O)C[C@@H](O)CC(=O)O[C@H]1C)C[C@H](O)[C@H]2C(=O)O
reported_result: Not Active
//
molecule_smiles: CO[C@H]1O[C@@H]2O[C@@]3(C)CC[C@H]4[C@H](C)CC[C@@H]([C@H]1C)[C@@]24OO3
reported_result: Not Active
//
molecule_smiles: NC(N)=Nc1nc(CSCCC(N)=NS(N)(=O)=O)cs1
reported_result: Not Active
//
molecule_smiles: CC[C@H]1OC(=O)[C@H](C)[C@@H](O[C@H]2C[C@@](C)(OC)[C@@H](O)[C@H](C)O2)[C@H](C)[C@@H](O[C@@H]2O[C@H](C)C[C@H](N(C)C)[C@H]2O)[C@](C)(O)C[C@@H](C)C(=O)[C@H](C)[C@@H](O)[C@]1(C)O
reported_result: Not Active
//
molecule_smiles: Cc1cnc(NC(=O)C2=C(O)c3ccccc3S(=O)(=O)N2C)s1
reported_result: Not Active
//
molecule_smiles: Nc1ccc(Cc2ccc(N)cc2)cc1
reported_result: Not Active
//
molecule_smiles: CO[C@@]12[C@H](COC(N)=O)C3=C(C(=O)C(C)=C(N)C3=O)N1C[C@@H]1N[C@@H]12
reported_result: Not Active

Next, consider the following compound.
I am curious: what IC50 value has been reported for O=C(O)c1ccccc1 ?
Not Active

Where these numbers come from: ChEMBL document CHEMBL1909046
